// reported switch fluorescence ratio for each item listed
# Tested on: ATP;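 further: ATP exposure 15 min at 22 °C before imaging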
# measurement protocol: switch fluorescence ratio, 500 uM ATP over buffer (Cy3 cluster intensity, sum of 5 cycles each) (fold (ratio)); higher = stronger signal-on switching upon ATP binding; sequences stand for … in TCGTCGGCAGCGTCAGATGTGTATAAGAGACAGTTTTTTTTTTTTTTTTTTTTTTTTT…TC
# protocol conditions: aptamer strand: ATP DNA aptamer (quencher-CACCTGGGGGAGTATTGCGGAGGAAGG + anchor), 100 nM annealed; ATP concentration: 500 uM

Please review the entries below; each comes with its answer.
chain | readout kind | data value
AAAAGGATTG | switch fluorescence ratio | 0.982
GCCGTAGACC | switch fluorescence ratio | 0.999
GTTATCTTTC | switch fluorescence ratio | 1.07
TCTATTATTT | switch fluorescence ratio | 1.03

Asked: Given the sequence "GGTTCTATGG" , write its reported switch fluorescence ratio.
Given back: 0.994

Asked: Given the sequence "CATGGGGGAC" , write its reported switch fluorescence ratio.
Given back: 0.995
